Each item that follows carries a reported KD (fold weaker), against chimeric 1A6.
- system: T1, Human FGF19 (human, UniProt O95750 25-216)
- T1 construct: Recombinant soluble protein; also called huFGF19; Fibroblast growth factor 19
- T1 sequence (O95750 25-216 limits assumed): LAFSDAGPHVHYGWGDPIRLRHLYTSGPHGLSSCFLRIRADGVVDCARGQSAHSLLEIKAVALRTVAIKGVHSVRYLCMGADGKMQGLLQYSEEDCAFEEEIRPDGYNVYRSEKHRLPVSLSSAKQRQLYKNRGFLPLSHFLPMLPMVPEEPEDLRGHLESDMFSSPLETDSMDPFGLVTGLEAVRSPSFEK
- procedure-details: SPR (BIAcore 2000), IgG on chip, soluble human FGF19
Record the value in fold, omitting the unit from your answer.

Enquiry: Quick one: give measured KD (fold weaker), against chimeric 1A6 for hu1A6.V50L (HVR-H2) (antibody, name in Kabat numbering, V domains shown) VH: EVQLVESGGGLVQPGGSLRLSCAASGFSLTTYGVHWVRQAPGKGLEWVGLIWPGGGTDYNAAFISRFTISRDNSKNTLYLQMNSLRAEDTAVYYCVRKEYANLYAMDYWGQGTLVTVSS VL: DIQMTQSPSSLSASVGDRVTITCKASQDINSFLSWYQQKPGKAPKLLIYRANRLVDGVPSRFSGSGSGTDFTLTISSLQPEDFATYYCLQYDEFPLTFGQGTKVEIKR
Return: 5.7
